system: COLO 205 colon; assay: NCI tumour cell line growth inhibition, 48 h
Please provide measured TGI for the entries that follow.

[
  {
    "Compound": "COc1ccc(C(=O)/C=C/c2cccc(Nc3ccnc4cc(Cl)ccc34)c2)cc1",
    "Endpoint result": "> 100 µM"
  },
  {
    "Compound": "C[C@]12CCC(=O)CC1CCCC2=O (some centres undefined)",
    "Endpoint result": "> 100 µM"
  },
  {
    "Compound": "NC(=O)NC12CC3CC(CC(F)(C3)C1)C2",
    "Endpoint result": "> 100 µM"
  }
]

Query: Given C[CH2][Sn]([CH2]C)([O]C(=O)c1ccccc1F)[O][Sn]([CH2]C)([CH2]C)[O]C(=O)c1ccccc1F , state its recorded TGI.
Reply: > 57.9 µM

====

Please provide measured TGI for the entries that follow.
tested on: T-47D breast; experiment: NCI tumour cell line growth inhibition, 48 h

Consider the worked cases shown below.
[
  {
    "Molecule": "O=C1NOC(c2ccc(O)cc2)(c2ccc(O)cc2)c2ccccc21",
    "TGI": "> 100 µM"
  },
  {
    "Molecule": "CC1=C(C(=O)N(C)c2ccc(Cl)c(C(=O)OC(C)C)c2)SCCO1",
    "TGI": "> 100 µM"
  },
  {
    "Molecule": "CC(=O)Oc1ccc2c3c1O[C@H]1[C@H](O)CC[C@@]4(O)[C@@H](C2)N(C)CC[C@]314",
    "TGI": "> 100 µM"
  },
  {
    "Molecule": "Cc1ccc2c(/C=C/c3ccc(N(C)C)cc3)ccc(C(C)C)cc1-2",
    "TGI": "> 100 µM"
  },
  {
    "Molecule": "CN(Cc1cnc2c(N)nc(N)nc2n1)c1ccc(Cl)cc1",
    "TGI": "> 100 µM"
  }
]

Hi! Can you tell me TGI for each of these molecules?
1. CNc1nc(C(N)=O)c(N)s1
2. Nc1c(C(=O)c2cccc(C#CCO)c2)cnn1-c1ccc(F)cc1
3. CCOC(=O)c1c(NC(=S)Nc2ccccc2)sc2c1CCOC2
4. Cc1cc(S(=O)(=O)/N=C(\[N-]S(=O)(=O)c2cc(Cl)sc2Cl)[n+]2ccc(N(C)C)cc2)c(S)cc1Cl
5. COc1ccccc1CNCCCN1C(=O)c2ccc3c4c(ccc(c24)C1=O)C(=O)N(CCCN)C3=O
6. C=C1c2ccoc2C[C@H]2[C@H]1CC[C@@]1(O)[C@@](C)(C(=O)OC)CCC[C@]21C
7. COc1ccc(NC(=S)c2ccoc2C)cc1CC(=O)OC(C)C
8. COC(=O)c1cc2ccccc2c2c3c(ccc12)OCO3

Reply:
1: > 100 µM; 2: > 25 µM; 3: > 100 µM; 4: > 100 µM; 5: 3.31 µM; 6: > 100 µM; 7: > 100 µM; 8: > 1000 µM

Hi! Can you tell me TGI for each of these molecules?
1. COc1cccc(/C=C2\S/C(=N/Nc3nc(-c4ccc([N+](=O)[O-])cc4)cs3)NC2=O)c1O
2. COc1ccc(C2=C(c3ccc(OC)c(OC)c3)C(=O)N3CCCC3C2)cc1 (stereo not given)
3. C#CC1(O)CCCCCCCCC2(CCCCCCCC1)OCCO2
4. Cc1nn(-c2ccc(Cl)cc2)c2nc3c(nc12)C(=O)C(=O)c1ccccc1-3
5. Cc1nn(C)c(COc2ccc(N3CCN(S(=O)(=O)N(C)C)CC3)cc2)c1-c1cccc2c(CCCOc3cccc4ccccc34)c(C(=O)O)n(CCN3CCOCC3)c12
6. O=[N+]([O-])c1ccc(NNN=Nc2ccc(-c3nc4ccccc4s3)cc2)c([N+](=O)[O-])c1

Reply:
1. 27.5 µM
2. > 100 µM
3. 33.8 µM
4. 29.9 µM
5. 9.38 µM
6. > 100 µM

Hi! Can you tell me TGI for each of these molecules?
1. O=c1oc2c(Cl)cc(Cl)cc2cc1C1=CSC2=NCCN12
2. CCOC(=O)/C=C(/C)Nc1nc2c(c(C(=O)OC)c1C#N)CCCC2
3. COc1cc(OC)c2[nH]c3c(O)c(-c4c(C)cc5c([nH]c6c(OC)cc(OC)cc65)c4O)c(C)cc3c2c1
4. CNc1ccc(C(=O)CC(O)CCC(C)C2OC(=O)CC(O)CC(=O)CC(O)CC(O)CC(O)CC(O)CC3(O)CC(O)C(C(=O)NCCN4CCOCC4)C(CC(OC4OC(C)C(O)C(N)C4O)/C=C/C=C/C=C/C=C\C=C/C=C/C=C/C2C)O3)cc1 (stereo not given)

Reply:
["> 100 µM", "> 100 µM", "17.7 µM", "> 100 µM"]

====

system: OVCAR-8 ovarian; assay: NCI tumour cell line growth inhibition, 48 h
Please provide measured TGI for the entries that follow.

Consider the worked cases shown below.
[
  {
    "Compound": "CCOC(=O)c1nnc2c(C#N)c(-c3ccccc3)c(C)n2c1N",
    "TGI": "98.3 µM"
  },
  {
    "Compound": "C=C1C[C@H](O)[C@H](Br)C(C)(C)C12CCC(C)(Cl)C(Br)C2 (stereo not given in full)",
    "TGI": "15.1 µM"
  },
  {
    "Compound": "c1ccc2[nH]c(-c3cc(-c4ccc5c(c4)OCO5)n[nH]3)nc2c1",
    "TGI": "18 µM"
  }
]

Hi! Can you tell me TGI for each of these compounds?
1. O=C(NC(=Nc1ccccc1)SCCSC(=Nc1ccccc1)NC(=O)c1cccs1)c1cccs1
2. CCOC(=O)c1c(NC(=S)Nc2ccccc2)sc2c1CCOC2
3. O=C(c1cc2c(c3ccccc13)NC1(CCCCC1)N=C2C(F)(F)F)C(F)(F)F

Reply:
1: > 100 µM; 2: > 100 µM; 3: 15.8 µM

Hi! Can you tell me TGI for each of these compounds?
1. COc1ccc(N(/C=C/C(=O)C(F)(F)F)CC(=O)c2ccc(F)cc2)cc1
2. OC1CSc2nc3ccccc3n2C1 (stereo not given)
3. CCC[CH2][Sn]1([CH2]CCC)[O]C2C(CO)OC(n3ccc(N)nc3=O)C2[O]1 (stereo not given)
4. CC(=O)OC(C)(C)CCC(=O)[C@](C)(O)[C@H]1[C@H](O)C[C@@]2(C)[C@@H]3CCc4c(cc(OC5OC(CO)C(O)C(O)C5O)c(O)c4C)C3(C)C(=O)C[C@]12C (stereo not given in full)

Reply:
1: > 100 µM; 2: > 100 µM; 3: 3.11 µM; 4: > 100 µM

====

test system: MOLT-4 leukemia; assay: NCI tumour cell line growth inhibition, 48 h
Where a SMILES comes first, the peptide text is derived from it. [ ]: non-standard residue; d: D form.
Please provide measured TGI for the entries that follow.

Consider the worked cases shown below.
[
  {
    "Compound": "CN(C)C(=O)c1ccc([N+](=O)[O-])cc1",
    "TGI": "> 100 µM"
  },
  {
    "Compound": "CC(C)C[C@H](NC(=O)[C@H](CC(C)C)NC(=O)[C@@H](Cc1c[nH]c2ccccc12)NC(=O)[C@H](Cc1ccccc1)NC(=O)[C@@H](Cc1c[nH]c2ccccc12)NC(=O)[C@H](CCC(N)=O)NC(=O)[C@H](CCC(N)=O)NC(=O)[C@H]1CCCN1C(=O)[C@@H](N)CCCCN)C(N)=O (H-K[dP]QQ[dW]F[dW]LL-NH2)",
    "TGI": "> 100 µM"
  },
  {
    "Compound": "Cc1nn(-c2ccc([N+](=O)[O-])cc2)c2ncnc(N/N=C/c3ccccc3O)c12",
    "TGI": "> 100 µM"
  },
  {
    "Compound": "Cc1ccc(C(=O)N/N=C(\\N=Nc2ccc(C(=O)O)cc2)c2ccc(N(CCC#N)CCC#N)cc2C)cc1",
    "TGI": "> 100 µM"
  },
  {
    "Compound": "CC(=O)N(C(C)=O)c1cc2c3c(c1)CCCN3CCC2",
    "TGI": "> 10 µM"
  }
]

Hi! Can you tell me TGI for each of these compounds?
1. CC(C)Oc1c(-c2ccc(F)cc2)c(O)c2c3c1oc(=O)n3C=CC2C (stereo unspecified)
2. COc1ccc(COC2CC(OC)OC(C)C2OC(=O)c2ccccc2)cc1 (stereo unspecified)
3. COc1ccc(-c2oc3c(OC)c(OC)cc(O)c3c(=O)c2OC)cc1
4. O=C1C(c2cnc3ccccc3n2)=C(O)c2ccccc21
5. CCCCCCCCCCCCCCCCCCOCC(O)COP(=O)(O)OCC1OC(n2ccc(N)nc2=O)C(O)C1O (stereo unspecified)
6. Cc1[nH]c(=O)nc(NNCc2ccc(Cl)cc2)c1C(=O)Nc1ccc(Cl)cc1

Reply:
1: 39.2 µM; 2: 40.1 µM; 3: > 100 µM; 4: > 100 µM; 5: 20 µM; 6: > 100 µM
